# Test system: SK-MEL-5
# Experiment: NCI tumour cell line growth inhibition, 48 h
Active and inactive are the calls of the source. Rule as the data show it: active = GI50 up to about 1.1 µM and inactive = higher.
Recorded metric: GI50

INSERT INTO results (compound, recorded_metric, reported_value) VALUES
  ('O=[N+]([O-])c1cc(C(F)(F)F)cc2c1SC1=Nc3ccccc3CN12', 'GI50', '> 100 µM (inactive)'),
  ('Cc1ccc(S(=O)OCc2c(C)c(C)c(COS(=O)c3ccc(C)cc3)c(C)c2C)cc1 (stereo not given)', 'GI50', '> 100 µM (inactive)'),
  ('CCc1cc(Cc2cc(CC)c(NC(=O)C(=O)CC(=O)c3sc(-c4cccnc4)nc3C)c(CC)c2)cc(CC)c1NC(=O)C(=O)CC(=O)c1sc(-c2cccnc2)nc1C', 'GI50', '> 100 µM (inactive)'),
  ('c1ccc(N2CCN(CCCN3CCc4c([nH]c5ccccc45)C3c3cccnc3)CC2)cc1 (stereo not given)', 'GI50', '> 70.3 µM (inactive)'),
  ('N#CC1=C(N)OC2=C(CCCc3ccc([N+](=O)[O-])cc32)C1c1ccc(Cl)cc1 (stereo not given)', 'GI50', '4.38 µM (inactive)'),
  ('O=C1Nc2ccccc2C(=O)/C1=C/NC(=S)NC1CCCCC1', 'GI50', '> 100 µM (inactive)'),
  ('COC(=O)/C(C#N)=C(\N)c1c(C)c2ccccc2oc1=N', 'GI50', '> 100 µM (inactive)'),
  ('CC(=O)NNc1nc(C)c(C(/C=C/c2ccc([N+](=O)[O-])cc2)=N/NC(N)=S)s1', 'GI50', '> 100 µM (inactive)'),
  ('Cc1nc(N)sc1C(=O)Nc1nc[nH]n1', 'GI50', '> 100 µM (inactive)'),
  ('Cc1cn(CCCCC2=NCCCN2)c(=O)[nH]c1=O', 'GI50', '> 28.1 µM (inactive)'),
  ('CC(=O)Oc1cc2c(cc1OC(C)=O)C1(C)CCC2(C)c2cc(OC(C)=O)c(OC(C)=O)cc21', 'GI50', '22.6 µM (inactive)'),
  ('CC1=C(C)CC2C(=O)N(c3cc(C(C)(C)C)ccc3C(C)(C)C)C(=O)C2C1 (stereo not given)', 'GI50', '> 100 µM (inactive)'),
  ('CN(C)c1ccc(C=C2C(=O)OC(C)(C)OC2=O)cc1Br', 'GI50', '> 100 µM (inactive)'),
  ('CCOP(=O)(OCC)C(c1ccccc1)N(C(=O)NC(F)(F)F)c1cccc(F)c1 (stereo not given)', 'GI50', '> 100 µM (inactive)'),
  ('CCOCN1COCN(C)C1=O', 'GI50', '> 100 µM (inactive)'),
  ('CCOC(=O)NN(C(=O)OCC)c1c(C)cc(C)cc1C', 'GI50', '> 100 µM (inactive)'),
  ('CCc1cccc(CC)c1NC1=CC(=O)C(=O)c2ccccc21', 'GI50', '10 µM (inactive)'),
  ('CC(C)[C@H]1NC(=O)[C@H]2N=C(S[C@H]2C)[C@@H]2CCCN2C(=O)[C@H](Cc2ccccc2)NC(=O)[C@@H]2CSC(=N2)[C@@H](Cc2ccccc2)NC(=O)[C@@H]2CSC1=N2', 'GI50', '24.4 µM (inactive)'),
  ('O=S1(=O)OCCOS(=O)(=O)C1S(=O)(=O)c1ccc2ccccc2c1', 'GI50', '> 100 µM (inactive)'),
  ('COc1cccc(/C=C2\CCC(CCN(C)C)(C3=CCCC3)C2=O)c1 (stereo not given)', 'GI50', '17.7 µM (inactive)');

Origin of measurements: ChEMBL document CHEMBL1201862
